The reported measurements were obtained from patent US20250325677A1.

- Assayed target: STAT6 (Homo sapiens (Human), UniProt P42226)
- Sequence (P42226 whole entry): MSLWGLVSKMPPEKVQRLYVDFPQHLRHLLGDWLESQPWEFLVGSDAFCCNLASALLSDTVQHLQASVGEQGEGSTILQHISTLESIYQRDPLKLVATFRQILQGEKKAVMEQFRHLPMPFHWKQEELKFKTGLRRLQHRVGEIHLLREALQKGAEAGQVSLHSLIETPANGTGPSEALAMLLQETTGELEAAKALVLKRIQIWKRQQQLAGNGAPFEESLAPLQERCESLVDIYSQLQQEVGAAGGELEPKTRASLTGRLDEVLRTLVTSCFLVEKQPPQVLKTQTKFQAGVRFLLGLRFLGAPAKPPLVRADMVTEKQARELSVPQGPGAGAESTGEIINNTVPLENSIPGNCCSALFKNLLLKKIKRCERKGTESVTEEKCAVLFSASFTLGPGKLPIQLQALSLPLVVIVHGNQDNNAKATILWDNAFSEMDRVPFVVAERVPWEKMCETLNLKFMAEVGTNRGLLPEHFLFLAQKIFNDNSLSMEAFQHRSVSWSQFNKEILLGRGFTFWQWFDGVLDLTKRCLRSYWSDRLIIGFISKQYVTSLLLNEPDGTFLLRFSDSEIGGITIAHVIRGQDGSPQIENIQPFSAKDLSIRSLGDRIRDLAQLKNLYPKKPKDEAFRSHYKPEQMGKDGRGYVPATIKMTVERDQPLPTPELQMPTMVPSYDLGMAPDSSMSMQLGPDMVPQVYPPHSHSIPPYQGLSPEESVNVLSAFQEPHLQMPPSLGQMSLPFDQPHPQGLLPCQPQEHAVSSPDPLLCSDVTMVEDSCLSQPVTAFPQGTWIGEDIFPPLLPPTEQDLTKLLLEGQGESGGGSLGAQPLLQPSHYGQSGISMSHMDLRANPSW
- Assay: STAT6 degrader assay (HiBiT, HeLa LgBiT clone 4.14)
- Type: cell-based
- Settings: HeLa LgBiT clone 4.14, 4-24 h; geometric mean; given for compounds with >80% Emax; read-out: STAT6 degradation DC50
Label t when DC50 is strictly below 0.8 nM; at or above that, label f.

| Molecule | Class name |
| --- | --- |
| CNc1ccc(-c2ccnc3c2cc([C@H](C)N2CCC(c4ccc(C(=O)N5CCC(CN6CCN(Cc7ccc8c(c7)n(C)c(=O)n8[C@H]7CCC(=O)NC7=O)C[C@@H]6C)CC5)cc4)CC2)n3C)cn1 | f |
| C[C@H]1CN(Cc2ccc3c(c2)n(C2CC2)c(=O)n3[C@H]2CCC(=O)NC2=O)CCN1CC1CCN(C(=O)c2ccc(C3CCN([C@@H](C)c4cc5c(-c6ccc(N)nc6)ccnc5n4C)CC3)cc2)CC1 (single isomer, unassigned) | f |
| C[C@@H](c1cc2c(-c3ccc(N)nc3)ccnc2n1C)N1CCC(c2ccc(C(=O)N3CCC(CC4CCN(c5ccc6c(c5)C5(CC5)C(=O)N6C5CCC(=O)NC5=O)CC4)CC3)cc2)CC1 (stereo partly drawn) | f |
| COCc1nc2cc(-c3ccnc4c3cc([C@H](C)N3CCC(c5ccc(C(=O)N6CCC(CN7CCN(Cc8ccc9c(c8)n(C)c(=O)n9C8CCC(=O)NC8=O)CC7)CC6)cc5)CC3)n4C)ccc2[nH]1 (stereo partly drawn) | t |
| CNc1ccc(-c2ccnc3c2cc([C@H](C)N2CC=C(c4c(C)cc(C(=O)N5CCC(CN6CCN(Cc7ccc8c(c7)n(C7CC7)c(=O)n8[C@@H]7CCC(=O)NC7=O)C[C@@H]6C)CC5)cc4F)CC2)n3C)cn1 | f |
| C[C@H]1CN(Cc2ccc3c(c2)n(C)c(=O)n3[C@@H]2CCC(=O)NC2=O)CCN1CC1CCN(C(=O)c2ccc(C3CCN(Cc4cc5c(-c6ccc(N)nc6)ccnc5n4C)CC3)cc2)CC1 (single isomer, unassigned) | f |

====

- Test system: eotaxin-3 release
- Assay: Human whole blood eotaxin-3 assay (IL-4 stimulated)
- Format: cell-based
- Settings: human whole blood, hIL-4 (E. coli) stimulation; read-out: EC50 of inhibition of eotaxin-3 release (reference compound)
pEC50: −log10 of the molar value.

| Compound | Assayed target | pEC50 |
| --- | --- | --- |
| CCCS(=O)(=O)N[C@H]1C[C@@H](N(C)c2ncnc3[nH]ccc23)C1 [abroticinib, abrocitinib, reference compound] | eotaxin-3 release | ~6.35 |

====

- Assayed target: STAT6 (Homo sapiens (Human), UniProt P42226)
- Assay: STAT6 degrader assay (HiBiT, HeLa LgBiT clone 4.14)
- Type: cell-based
- Settings: HeLa LgBiT clone 4.14, 4-24 h; geometric mean; given for compounds with >80% Emax; read-out: STAT6 degradation DC50

| Compound | DC50 |
| --- | --- |
| C[C@@H](c1cc2c(-c3ccc(N)nc3)ccnc2n1C)N1CCC(c2ccc(C(=O)N3CCC(CN4CCN(Cc5ccc6c(c5)n(C)c(=O)n6C5CCC(=O)NC5=O)C[C@@H]4C(F)(F)F)CC3)cc2)CC1 (stereo partly drawn) [Example 3e42] | 1.8 nM |
| C[C@@H](c1cc2c(-c3ccc(N)nc3)ccnc2n1C)N1CCC(c2ccc(C(=O)N3CCC(CN4CCN(Cc5ccc6c(c5)n(CC5CC5)c(=O)n6C5CCC(=O)NC5=O)CC4)CC3)cc2)CC1 (stereo partly drawn) [Example 3e53] | 1.9 nM |
| C[C@H]1CN(Cc2ccc3c(c2)C(C)(C)C(=O)N3C2CCC(=O)NC2=O)CCN1CC1CCN(C(=O)c2ccc(C3CCN([C@@H](C)c4cc5c(-c6ccc(N)nc6)ccnc5n4C)CC3)cc2)CC1 (stereo partly drawn) [Example 3r2] | 4.1 nM |
